B1: F1*; the commonest letter at each place (parent)
chain: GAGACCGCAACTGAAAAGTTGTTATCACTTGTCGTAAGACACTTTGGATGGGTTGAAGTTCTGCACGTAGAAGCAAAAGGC

Variants of: B1
Assay: fraction ligated after 30 min (ligated reads / total reads); higher = more ligase activity
Details: with F1*sub RNA substrate (template-directed ligation), 42 °C
// reported fraction ligated per item
Form rule: numeric answer, no unit written next to it.

In: Report fraction ligated for G50A A57T please.
Out: 0.216

In: Lookup G38C T45G
Out: 0.0325

In: Lookup G31T A41C
Out: 0.586

In: Lookup A27C C28T
Out: 0.819

In: Lookup C26A A36C
Out: 0.79

In: Lookup A24T G46C
Out: 0.313

In: Lookup T32C A57C
Out: 0.76

In: Lookup C33A G47A
Out: 0.745
